Target: T1, 4H2687-AA
T1 chain: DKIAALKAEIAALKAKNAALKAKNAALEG
Experiment: two-hybrid library CCmax;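 further: natural log of median RNA to DNA barcode read ratio; higher means stronger binding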
Details: mean of both orientations
Below, each of the binders is paired with its reported interaction score value.
Enter a number only.

Before answering, review these 4 worked examples.
| binder | interaction score |
| --- | --- |
| DEIAALEAENAALKAKIAALKAEIAALEG [4H233-AA] | -1.45 |
| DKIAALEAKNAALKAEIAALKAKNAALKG [4H2512-AA] | -1.95 |
| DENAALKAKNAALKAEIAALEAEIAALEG [4H1985-AA] | -1.92 |
| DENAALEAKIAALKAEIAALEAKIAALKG [4H1350-AA] | -0.889 |

Consider the record given below.
Bench note: what interaction score did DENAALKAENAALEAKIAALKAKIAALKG [4H1710-AA] show?
-1.29
